# System: CAKI-1 renal
# protocol-summary: NCI tumour cell line growth inhibition, 48 h
endpoint-label: TGI

[
  {
    "compound": "COc1cc(C(=O)N2CCN(c3ccccc3OC)CC2)c(N)cc1OCc1ccccc1",
    "target-or-test-system": "CAKI-1 renal",
    "result": "> 100 µM"
  },
  {
    "compound": "O=C1C2C(C(=O)N1c1ccccc1)C1(c3ccccc3)OC2(c2ccccc2)c2ccccc21 (stereo not given)",
    "target-or-test-system": "CAKI-1 renal",
    "result": "> 100 µM"
  },
  {
    "compound": "COc1cc(Nc2ncc3c(C)nc(-c4cccc(Oc5ccccc5)c4)n3n2)cc(OC)c1OC",
    "target-or-test-system": "CAKI-1 renal",
    "result": "> 25 µM"
  },
  {
    "compound": "CC(C)[Si](OCC1CC(C[C@H]2CC(C[C@H]3C[C@@H](CO[Si](C(C)C)(C(C)C)C(C)C)OC(C)(C)O3)OC(C)(C)O2)OC(C)(C)O1)(C(C)C)C(C)C (stereo not given in full)",
    "target-or-test-system": "CAKI-1 renal",
    "result": "> 100 µM"
  },
  {
    "compound": "CC(C)c1ccc2c(c1)C=C1OC(=O)[C@]3(C)CCC[C@@]2(C)C13 (stereo not given in full)",
    "target-or-test-system": "CAKI-1 renal",
    "result": "> 100 µM"
  }
]

###

# Test system: M14 melanoma
# protocol-summary: NCI tumour cell line growth inhibition, 48 h; in the data active means GI50 below about 0.43 µM; inactive means the rest
Outcomes: 1 (active), -1 (inactive)

[
  {
    "smiles-representation": "NC(N)=N/N=C(/c1ccccc1)c1ccc(Cl)cc1",
    "target-or-test-system": "M14 melanoma",
    "label-class": -1
  },
  {
    "smiles-representation": "Cc1cc(NCCCCNc2ccnc3cc(Cl)ccc23)nc(Nc2ccc(C(=O)N3CCCC3)cc2)n1",
    "target-or-test-system": "M14 melanoma",
    "label-class": -1
  },
  {
    "smiles-representation": "COC(=O)c1oc2c(O)c(OC)c(Br)cc2c1C",
    "target-or-test-system": "M14 melanoma",
    "label-class": -1
  },
  {
    "smiles-representation": "COc1cc(/C=C/C(=O)C(C(=O)/C=C/c2ccc(OC(=O)CCNc3nnc(C)s3)c(OC)c2)C(=O)CCNc2nnc(C)s2)ccc1OC(=O)CCNc1nnc(C)s1",
    "target-or-test-system": "M14 melanoma",
    "label-class": -1
  },
  {
    "smiles-representation": "COc1ccc(/C(=N\\O)c2cc(OC)c(OC)c(OC)c2)c(OC)c1N",
    "target-or-test-system": "M14 melanoma",
    "label-class": -1
  },
  {
    "smiles-representation": "Oc1ccccc1Nc1nc2ccccc2c2occc12",
    "target-or-test-system": "M14 melanoma",
    "label-class": -1
  },
  {
    "smiles-representation": "COc1cc2c(cc1OCCCCCn1c(-c3ccco3)nc3ccccc31)N=C[C@@H]1CCCN1C2=O",
    "target-or-test-system": "M14 melanoma",
    "label-class": 1
  }
]

###

Each entry below carries its recorded GI50.
# System: MDA-MB-231 breast
# protocol-summary: NCI tumour cell line growth inhibition, 48 h

[
  {
    "molecule": "O=C1/C(=C/c2ccc([N+](=O)[O-])o2)Oc2ccccc21",
    "GI50": "1.54 µM"
  },
  {
    "molecule": "CCCCCCCCCCCCSC(=NC)NC",
    "GI50": "2.02 µM"
  },
  {
    "molecule": "CCN(CC)CCCNc1nc2ccccc2c2c(=O)c3cc(Cl)ccc3sc12",
    "GI50": "1.45 µM"
  },
  {
    "molecule": "COC(=O)c1oc2c(O)c(OC)c(Br)cc2c1C",
    "GI50": "16.5 µM"
  },
  {
    "molecule": "CC1CC(C)/C(=N/NC(N)=O)C(C(O)CC2CCC(=O)NC2=O)C1 (centres undefined)",
    "GI50": "8.4 µM"
  },
  {
    "molecule": "COc1cc(OC)c2cc(C(=O)O)c(=O)oc2c1",
    "GI50": "> 100 µM"
  },
  {
    "molecule": "O=C1Nc2ccccc2/C1=C/c1cn(C(=O)c2c(Cl)cccc2Cl)c2ccccc12",
    "GI50": "3.09 µM"
  },
  {
    "molecule": "CO/N=C(\\COc1ccc2c(c1)oc(=O)c1cc(OC)ccc12)c1ccc(F)cc1",
    "GI50": "15.8 µM"
  },
  {
    "molecule": "C=C(C)[C@@H]1CC[C@]2(C(=O)O)CC[C@]3(C)[C@H](CC[C@@H]4[C@@]5(C)C[C@@H](CC#Cc6ccc(Br)cc6)C(=O)C(C)(C)[C@@H]5CC[C@]43C)[C@@H]12",
    "GI50": "3.67 µM"
  },
  {
    "molecule": "c1ccc2c(-c3nc4ccccc4[nH]3)cccc2c1",
    "GI50": "9.65 µM"
  },
  {
    "molecule": "COc1cc(/C=C/C(=O)C(C(=O)/C=C/c2ccc(OC(=O)CCNc3nnc(C)s3)c(OC)c2)C(=O)CCNc2nnc(C)s2)ccc1OC(=O)CCNc1nnc(C)s1",
    "GI50": "2.23 µM"
  },
  {
    "molecule": "Cc1ccc(/C=C/C(=O)c2ccc(N)cc2)c(C)c1",
    "GI50": "2.68 µM"
  },
  {
    "molecule": "C/C1=C\\CC[C@@]2(C)O[C@@H]2C[C@@H]2[C@H](C/C(C)=C/CC1)OC(=O)C21CCN=N1 (some centres undefined)",
    "GI50": "> 100 µM"
  },
  {
    "molecule": "O=C(CC(O)c1ccncc1)c1ccccc1 (centres undefined)",
    "GI50": "16.7 µM"
  }
]

###

# System: UACC-257 melanoma
# protocol-summary: NCI tumour cell line growth inhibition, 48 h
# TGI per entry

[
  {
    "molecule": "C[C@@H]1OC(=O)C[C@H]2CC(=O)N(CCC3CN(S(=O)(=O)C(F)(F)F)c4ccc(Cc5ccc6c(c5)C(CCN5C[C@H]7[C@@H](CC(=O)O[C@H]7C)CC5=O)CN6S(=O)(=O)C(F)(F)F)cc43)C[C@@H]21 (some centres undefined)",
    "target-or-test-system": "UACC-257 melanoma",
    "readout-unit": "µM",
    "qualifier-operator": ">",
    "TGI": 100
  },
  {
    "molecule": "CC(=O)NC(CCCCNC(=O)OC(C)(C)C)C(=O)O (centres undefined)",
    "target-or-test-system": "UACC-257 melanoma",
    "readout-unit": "µM",
    "qualifier-operator": ">",
    "TGI": 100
  },
  {
    "molecule": "CS(=O)(=O)Nc1cccc(-c2ccc3c(NC(=O)C4CC4)n[nH]c3c2)c1",
    "target-or-test-system": "UACC-257 melanoma",
    "readout-unit": "µM",
    "qualifier-operator": ">",
    "TGI": 25
  },
  {
    "molecule": "CCCCCCCCCCCCSC(=NC)NC",
    "target-or-test-system": "UACC-257 melanoma",
    "readout-unit": "µM",
    "qualifier-operator": "=",
    "TGI": 5.14
  },
  {
    "molecule": "CC1(C)N=C(N)N=C(N)N1c1ccc(OCC(=O)N2CCOCC2)c(Cl)c1",
    "target-or-test-system": "UACC-257 melanoma",
    "readout-unit": "µM",
    "qualifier-operator": ">",
    "TGI": 100
  },
  {
    "molecule": "CC(=O)c1c(O)ccc2c(C)c(C(=O)O)oc12",
    "target-or-test-system": "UACC-257 melanoma",
    "readout-unit": "µM",
    "qualifier-operator": ">",
    "TGI": 100
  },
  {
    "molecule": "Cc1cc(Cl)ccc1NC(=O)CC1SC(N)=NC1=O (centres undefined)",
    "target-or-test-system": "UACC-257 melanoma",
    "readout-unit": "µM",
    "qualifier-operator": ">",
    "TGI": 100
  },
  {
    "molecule": "Cc1ccc(NC(=O)COC(=O)c2cccc3c(=O)c4ccccc4[nH]c23)cc1",
    "target-or-test-system": "UACC-257 melanoma",
    "readout-unit": "µM",
    "qualifier-operator": ">",
    "TGI": 100
  },
  {
    "molecule": "CCN(CC)c1nc(N(C)C)c2ccc(OC)cc2n1",
    "target-or-test-system": "UACC-257 melanoma",
    "readout-unit": "µM",
    "qualifier-operator": "=",
    "TGI": 28.1
  },
  {
    "molecule": "CC(=O)N1C(C(=O)NNc2ccccc2)CSC1c1ccccc1 (centres undefined)",
    "target-or-test-system": "UACC-257 melanoma",
    "readout-unit": "µM",
    "qualifier-operator": ">",
    "TGI": 100
  },
  {
    "molecule": "O=C(CC/C(CC(=O)c1ccc(Cl)cc1)=N/O)Nc1ccc(Cl)c(Cl)c1",
    "target-or-test-system": "UACC-257 melanoma",
    "readout-unit": "µM",
    "qualifier-operator": ">",
    "TGI": 100
  },
  {
    "molecule": "BrCCC[P+](c1ccccc1)(c1ccccc1)c1ccccc1",
    "target-or-test-system": "UACC-257 melanoma",
    "readout-unit": "µM",
    "qualifier-operator": "=",
    "TGI": 48.3
  },
  {
    "molecule": "COc1ccc2c(c1)O[C@H]1c3ccc(O)cc3OC[C@@H]21",
    "target-or-test-system": "UACC-257 melanoma",
    "readout-unit": "µM",
    "qualifier-operator": "=",
    "TGI": 52.5
  },
  {
    "molecule": "O=C(Nc1cccc([N+](=O)[O-])c1)c1ccc2ccccc2c1O",
    "target-or-test-system": "UACC-257 melanoma",
    "readout-unit": "µM",
    "qualifier-operator": "=",
    "TGI": 7.34
  },
  {
    "molecule": "Cc1[nH]n(-c2ccc(S(=O)(=O)O)cc2)c(=O)c1N=Nc1ccccc1",
    "target-or-test-system": "UACC-257 melanoma",
    "readout-unit": "µM",
    "qualifier-operator": ">",
    "TGI": 100
  },
  {
    "molecule": "O=c1[nH]ccc2nc(-c3ccc(CN4CCC(c5nc(-c6ccccn6)n[nH]5)CC4)cc3)c(-c3ccccc3)cc12",
    "target-or-test-system": "UACC-257 melanoma",
    "readout-unit": "µM",
    "qualifier-operator": "=",
    "TGI": 51.3
  },
  {
    "molecule": "COc1cc(C2c3[nH]c4ccc(F)cc4c3C[C@H]3COC(=O)N23)cc(OC)c1O (some centres undefined)",
    "target-or-test-system": "UACC-257 melanoma",
    "readout-unit": "µM",
    "qualifier-operator": ">",
    "TGI": 100
  },
  {
    "molecule": "O=C1C=CC[C@H](/C=C/C[C@@H](O)C[C@H](O)/C=C/c2ccccc2)O1",
    "target-or-test-system": "UACC-257 melanoma",
    "readout-unit": "µM",
    "qualifier-operator": "=",
    "TGI": 26.9
  },
  {
    "molecule": "Cn1ccnc1C(=O)/C=C/c1ccc(C(=O)Nc2ccccc2O)cc1",
    "target-or-test-system": "UACC-257 melanoma",
    "readout-unit": "µM",
    "qualifier-operator": "=",
    "TGI": 13.3
  },
  {
    "molecule": "O=C1OC2c3ccccc3C(=O)C2(c2ccccc2)N1c1ccccc1 (centres undefined)",
    "target-or-test-system": "UACC-257 melanoma",
    "readout-unit": "µM",
    "qualifier-operator": ">",
    "TGI": 200
  },
  {
    "molecule": "O=C(O)c1cncc(C(=O)O)c1",
    "target-or-test-system": "UACC-257 melanoma",
    "readout-unit": "µM",
    "qualifier-operator": ">",
    "TGI": 100
  },
  {
    "molecule": "COc1cc(C2CC(c3ccc(Nc4ccnc5cc(Cl)ccc45)cc3)=NN2C=O)cc(OC)c1OC (centres undefined)",
    "target-or-test-system": "UACC-257 melanoma",
    "readout-unit": "µM",
    "qualifier-operator": "=",
    "TGI": 8.28
  },
  {
    "molecule": "COCC(=O)OC1CCn2c1nc1c2C(=O)C(C)=C(NC(C)=O)C1=N (centres undefined)",
    "target-or-test-system": "UACC-257 melanoma",
    "readout-unit": "µM",
    "qualifier-operator": "=",
    "TGI": 8.23
  },
  {
    "molecule": "C=CCOC(=O)CCCCCCCCCCCCCCCOC(=O)c1c(CCC[C@@H](C)O[Si](C)(C)C(C)(C)C)nc(=O)n2c1CC[C@H]2CC1(CC/C=C\\[C@H](CC)O[Si](C(C)C)(C(C)C)C(C)C)OCCO1",
    "target-or-test-system": "UACC-257 melanoma",
    "readout-unit": "µM",
    "qualifier-operator": ">",
    "TGI": 100
  }
]
